// provenance: ChEMBL document CHEMBL2434921

system: NCI-H23; assay: Growth inhibition of human NCI-H23 cells at 1 uM after 48 hrs by SRB assay; values are per cent of control; conditions: NCI-H23, 48 h
measured attribute: growth, % of control at 1 µM (%)

• C=CC[N+](CC)(CC)CCN(C)S(=O)(=O)CCCCCCCCCCCCCC = 31.1
• CCCCCCCCCCCCCCCCS(=O)(=O)N(C)CCC[N+](C)(C)CC = 58.8
• CCCCCCCCCCCCCCCCS(=O)(=O)NCC(C)(C)C[N+](C)(C)C = 54.1

====

test system: NCI-H23; assay: Growth inhibition of human NCI-H23 cells after 48 hrs by SRB assay; format: functional; conditions: NCI-H23, 48 h
measured attribute: GI50

* CCCCCCCCCCCCCCCCS(=O)(=O)N(C)CC[N+](C)(C)CC | 1810 nM
* CCCCCCCCCCCCCCCCS(=O)(=O)N(C)CCC[N+](C)(C)CC | 430 nM
* CCCCCCCCCCCCCCS(=O)(=O)N(C)CC[N+](CC)(CC)CC | 470 nM
* CCCCCCCCCCCCCCS(=O)(=O)N(C)CC[N+](C)(C)C | 2040 nM
* CCCCCCCCCCCCCCCCS(=O)(=O)N(C)CCC[N+](C)(C)C | 910 nM
* CCCCCCCCCCCCCCCCS(=O)(=O)NCCC[N+](C)(C)C | 1560 nM
* CCCCCCCCCCCCCCCCS(=O)(=O)NCC(C)(C)C[N+](C)(C)C | 740 nM
* CCCCCCCCCCCCCCCCS(=O)(=O)NCCC[N+](C)(C)CC | 910 nM
* CCCCCCCCCCCCCCCCS(=O)(=O)NCC(C)(C)C[N+](C)(C)CC | 690 nM
* CCCCCCCCCCCCCCCCS(=O)(=O)N(C)CC[N+](C)(C)C | 1290 nM
* CCCCCCCCCCCCCCS(=O)(=O)NCC(C)(C)C[N+](C)(C)C | 310 nM
* CCCCCCCCCCCCCCS(=O)(=O)NCCC[N+](C)(C)C | 460 nM
* C=CC[N+](C)(C)CCN(C)C(=O)CCCCCCCCCCCCC | 240 nM
* C=CC[N+](C)(C)CCN(C)S(=O)(=O)CCCCCCCCCCCCCCCC | 890 nM
* CCCCCCCCCCCCCCCCS(=O)(=O)N(C)CC[N+](CC)(CC)CC | 550 nM
* C=CC[N+](C)(C)CCN(C)S(=O)(=O)CCCCCCCCCCCCCC | 730 nM

====

tested on: NUGC-3; assay: Growth inhibition of human NUGC3 cells after 48 hrs by SRB assay; assay type: functional; details: NUGC-3, 48 h
// returns False unless GI50 is strictly below 300 nM, in which case True

* CCCCCCCCCCCCCCS(=O)(=O)NCCC[N+](C)(C)CC | True
* C=CC[N+](C)(C)CCN(C)C(=O)CCCCCCCCCCCCC | True
* CCCCCCCCCCCCCCCCS(=O)(=O)NCC(C)(C)C[N+](C)(C)C | False
* CCCCCCCCCCCCCCS(=O)(=O)N(C)CCC[N+](C)(C)CC | True
* CCCCCCCCCCCCCCS(=O)(=O)N(C)CC[N+](CC)(CC)CC | False
* CCCCCCCCCCCCCCS(=O)(=O)NCCC[N+](C)(C)C | False

====

growth, % of control at 10 µM values by entry
tested on: HCT-15; assay: Growth inhibition of human HCT15 cells at 10 uM after 48 hrs by SRB assay; values are per cent of control; details: HCT-15, 48 h
measured attribute: growth, % of control at 10 µM (%)

• CCCCCCCCCCCCCCCCS(=O)(=O)N(C)CC[N+](C)(C)C = 19.5
• CCCCCCCCCCCCCCS(=O)(=O)N(C)CC[N+](C)(C)C = 20.2
• CCCCCCCCCCCCCCCCS(=O)(=O)N(C)CCC[N+](C)(C)CC = 15.7
• CCCCCCCCCCCCCCCCS(=O)(=O)NCC(C)(C)C[N+](C)(C)CC = 21.3
• CCCCCCCCCCCCCCCCS(=O)(=O)N(C)CC[N+](C)(CC)CC = 21.1
• C=CC[N+](C)(C)CCN(C)S(=O)(=O)CCCCCCCCCCCCCC = 22.6

====

growth, % of control at 10 µM values by entry
system: HCT-15; assay: Growth inhibition of human HCT15 cells at 10 uM after 48 hrs by SRB assay; values are per cent of control; details: HCT-15, 48 h
measured attribute: growth, % of control at 10 µM (%)

* CCCCCCCCCCCCCCCCS(=O)(=O)NCC(C)(C)C[N+](C)(C)C | 11.7
* CCCCCCCCCCCCCCS(=O)(=O)NCCC[N+](C)(C)CC | 23.4
* C=CC[N+](CC)(CC)CCN(C)S(=O)(=O)CCCCCCCCCCCCCCCC | -7
* CCCCCCCCCCCCCCCCS(=O)(=O)NCCC[N+](C)(C)CC | 16.3
* CCCCCCCCCCCCCCS(=O)(=O)NCCC[N+](C)(C)C | 22

====

tested on: NUGC-3; experiment: Growth inhibition of human NUGC3 cells after 48 hrs by SRB assay; assay type: functional; details: NUGC-3, 48 h
measured attribute: GI50 (nM)

- CCCCCCCCCCCCCCCCS(=O)(=O)N(C)CC[N+](C)(C)C: 330
- CCCCCCCCCCCCCCS(=O)(=O)NCC(C)(C)C[N+](C)(C)CC: 510
- CCCCCCCCCCCCCCCCS(=O)(=O)NCC(C)(C)C[N+](C)(C)CC: 570
- C=CC[N+](C)(C)CCN(C)S(=O)(=O)CCCCCCCCCCCCCCCC: 760
- C=CC[N+](CC)(CC)CCN(C)S(=O)(=O)CCCCCCCCCCCCCCCC: 390

====

tested on: NUGC-3; test: Growth of human NUGC3 cells at 1 uM after 48 hrs by SRB assay; settings: NUGC-3, 48 h
growth, % of control at 1 µM class ranges: lo = under 30%, mid = from 30% up to 40%, hi = 40% and over

* CCCCCCCCCCCCCCS(=O)(=O)N(C)CCC[N+](C)(C)C | lo
* CCCCCCCCCCCCCCS(=O)(=O)NCC(C)(C)C[N+](C)(C)C | mid
* C=CC[N+](C)(C)CCN(C)S(=O)(=O)CCCCCCCCCCCCCC | hi
* C=CC[N+](C)(C)CCN(C)S(=O)(=O)CCCCCCCCCCCCCCCC | hi
* CCCCCCCCCCCCCCS(=O)(=O)N(C)CCC[N+](C)(C)CC | lo
* CCCCCCCCCCCCCCS(=O)(=O)N(C)CC[N+](C)(C)C | mid
* CCCCCCCCCCCCCCS(=O)(=O)NCCC[N+](C)(C)CC | mid
* CCCCCCCCCCCCCCS(=O)(=O)N(C)CC[N+](CC)(CC)CC | lo
* CCCCCCCCCCCCCCCCS(=O)(=O)N(C)CCC[N+](C)(C)CC | lo
* CCCCCCCCCCCCCCS(=O)(=O)NCC(C)(C)C[N+](C)(C)CC | mid
* CCCCCCCCCCCCCCCCS(=O)(=O)NCCC[N+](C)(C)C | hi
* CCCCCCCCCCCCCCS(=O)(=O)N(C)CC[N+](C)(CC)CC | hi
* CCCCCCCCCCCCCCCCS(=O)(=O)NCC(C)(C)C[N+](C)(C)CC | hi

====

system: ACHN; assay: Growth of human ACHN cells at 0.3 uM after 48 hrs by SRB assay
growth, % of control at 0.3 µM values by entry
measured attribute: growth, % of control at 0.3 µM (%)

- CCCCCCCCCCCCCCCCS(=O)(=O)N(C)CC[N+](CC)(CC)CC: 92.8
- C=CC[N+](CC)(CC)CCN(C)S(=O)(=O)CCCCCCCCCCCCCC: 90.5
- CCCCCCCCCCCCCCCCS(=O)(=O)N(C)CCC[N+](C)(C)CC: 92.1
- CCCCCCCCCCCCCCCCS(=O)(=O)N(C)CC[N+](C)(C)C: 90.3
- CCCCCCCCCCCCCCS(=O)(=O)NCCC[N+](C)(C)C: 88.6
- CCCCCCCCCCCCCCS(=O)(=O)N(C)CC[N+](CC)(CC)CC: 94.5
- CCCCCCCCCCCCCCCCS(=O)(=O)NCC(C)(C)C[N+](C)(C)CC: 100
- CCCCCCCCCCCCCCS(=O)(=O)NCCC[N+](C)(C)CC: 91.4

====

tested on: NCI-H23; test: Growth inhibition of human NCI-H23 cells at 3 uM after 48 hrs by SRB assay; values are per cent of control; settings: NCI-H23, 48 h
measured attribute: growth, % of control at 3 µM (%)

- CCCCCCCCCCCCCCCCS(=O)(=O)NCC(C)(C)C[N+](C)(C)CC: 30.4
- CCCCCCCCCCCCCCS(=O)(=O)N(C)CC[N+](C)(C)CC: 53.6
- C=CC[N+](C)(C)CCN(C)S(=O)(=O)CCCCCCCCCCCCCCCC: 30.9
- CCCCCCCCCCCCCCS(=O)(=O)NCC(C)(C)C[N+](C)(C)C: 1.5
- CCCCCCCCCCCCCCCCS(=O)(=O)NCC(C)(C)C[N+](C)(C)C: 26.3
- CCCCCCCCCCCCCCS(=O)(=O)N(C)CC[N+](C)(CC)CC: 16.4
- CCCCCCCCCCCCCCCCS(=O)(=O)N(C)CC[N+](C)(CC)CC: 22.5
- C=CC[N+](C)(C)CCN(C)S(=O)(=O)CCCCCCCCCCCCCC: 24
- CCCCCCCCCCCCCCS(=O)(=O)N(C)CC[N+](C)(C)C: 59.1
- CCCCCCCCCCCCCCS(=O)(=O)N(C)CCC[N+](C)(C)C: -19.7
- CCCCCCCCCCCCCCCCS(=O)(=O)N(C)CC[N+](C)(C)C: 41.8
- C=CC[N+](CC)(CC)CCN(C)S(=O)(=O)CCCCCCCCCCCCCCCC: 16.9
- CCCCCCCCCCCCCCCCS(=O)(=O)N(C)CCC[N+](C)(C)C: 26.5
